Exercise: for every item that follows, state its recorded TGI.
Test system: SK-MEL-2 melanoma
procedure.details: NCI tumour cell line growth inhibition, 48 h

May I ask what TGI has been recorded for `C=CCc1c2c(c(OC)c3ccoc13)C(=O)/C(=C/c1ccccc1OC)O2` ?
> 100 µM

What does the record list as TGI for `Cc1ccc(S(=O)(=O)N2CCSCCSCCSCCSCC2)cc1` ?
> 53.6 µM

Recorded TGI of O=C(c1ccccc1)C1N=NCC1c1ccc([N+](=O)[O-])cc1 (centres undefined) , please.
> 100 µM

Item `COC(=O)NN(C(=O)OC)c1c(-c2ccccc2)nc(SC)n1N` has what recorded TGI?
> 100 µM

* * *

Test system: COLO 205 colon
procedure.details: NCI tumour cell line growth inhibition, 48 h
I'd appreciate it if you could supply TGI values for the items below.

Bench note: what TGI did CC1(C)SC2C(NC(=O)C(N)c3ccccc3)C(=O)N2C1C(=O)O (configuration not stated) show?
> 100 µM

Looking for the measured TGI of `CC1(C)C(c2ccccc2)=[N+]([O-])C(C)(C)N1O` , can you help?
> 10 µM

Suppose we examine the compound `CCCc1[nH]nc(CCC(=O)N(Cc2ccccc2)Cc2ccccc2)c1CC` ; what TGI value has been reported?
> 100 µM

Entry `CCCC[C@H](NC(=O)[C@H]1CCCN1C)C(=O)N(C)[C@H](C[C@@H](OC(C)=O)c1nc(C(=O)N[C@@H](Cc2ccccc2)C[C@H](C)C(=O)OCC)cs1)C(C)C` has what TGI?
0.0961 µM

Given the compound `COC(=O)[C@H](Cc1cn(C)cn1)NC(=O)[C@H](Cc1c[nH]c2ccccc12)NC(=O)Nc1cc(C(F)(F)F)cc(C(F)(F)F)c1` , what is its reported TGI?
> 10 µM

# get_value(readout='TGI', item= `COCCN1C2=CCCCC2=Nc2c1nc(N)[nH]c2=O` )
> 100 µM

# query: TGI of entry `CC(C)NC[C@@H](C(=O)N1CCN(c2ncnc3c2[C@H](C)C[C@H]3O)CC1)c1ccc(Cl)cc1`
> 100 µM

What does the data say about its TGI? Entry: `CNS(=O)(=O)NN(C)S(=O)(=O)c1ccc(F)cc1`
> 100 µM

I have this compound here, `Nc1c2ccccc2nc2c1ccc1ncccc12` , and I need its recorded TGI.
> 100 µM

// lookup TGI for CC(=O)NC(CCCNCc1ccccc1)C(=O)NCc1ccccc1 (configuration not stated)
> 100 µM

I'd like to know its TGI. The compound in question is `COc1ccc(-c2ccc(/C=N/n3c(COc4ccc(Cl)cc4Cl)n[nH]c3=S)o2)c([N+](=O)[O-])c1`
> 100 µM

Which TGI reading was recorded for the compound `N#Cc1c(-c2ccccc2)/c(=C\Nc2ccc(Cl)cc2)c(=O)n2c1nc1ccccc12` ?
> 100 µM

* * *

System: HCC-2998 colon
procedure.details: NCI tumour cell line growth inhibition, 48 h
I'd be grateful if you could share measured TGI for these entries.

Item `C[n+]1c(-c2ccccc2)cc2/c(=C\c3ccc([N+](=O)[O-])cc3)c3ccccc3n21` with HCC-2998 colon - TGI?
> 100 µM

Form field: TGI recorded for COc1ccc2c(c1)C(O)(C(F)(F)F)c1cc(C(=O)C(F)(F)F)c3ccccc3c1N2 (stereo unspecified) with HCC-2998 colon (enter value)
24.3 µM

Enter reported TGI observed with HCC-2998 colon for CSCCC(NCc1c(O)ccc2c(-c3ccccc3)cc(=O)oc12)C(=O)O (stereo unspecified)
> 100 µM

State its TGI on HCC-2998 colon: COC(=O)CCC1CCc2c(OC)ccc(O)c2C1=O (stereo unspecified)
> 100 µM

For the record `CCCN=Cc1cc(Cc2ccc(O)c(C=NCCC)c2)ccc1O` , what value of TGI is listed for HCC-2998 colon?
27.8 µM

Kindly state the measured TGI obtained for CCC12C[N+]3([O-])CCc4c([nH]c5ccccc45)C(C(=O)OC)(c4cc5c(cc4OC)N(C)C4C(O)(C(=O)OC)C(OC(C)=O)C6(CC)C=CCN7CCC54C76)CC(C3)C1O2 (stereo unspecified) with HCC-2998 colon.
> 100 µM

What TGI appears in the records for this molecule with HCC-2998 colon? C=C(C)CCC(=O)[C@](C)(O)[C@H]1[C@H](O)C[C@@]2(C)[C@@H]3CCc4c(cc(OC5OC(CO)C(O)C(O)C5O)c(O)c4C)C3(C)C(=O)C[C@]12C (stereo partly specified)
> 100 µM

Provide value of TGI for this record tested with HCC-2998 colon: `COC(=O)c1ccccc1/C=C1/Cc2ccccc2C1=O`
> 100 µM

Form: Entry = COP(=O)(O)/C=C/C(NC(=O)C(Cl)(Cl)Cl)c1ccccc1 (stereo unspecified) | System = HCC-2998 colon | TGI = ____
> 100 µM

Request body: readout TGI, system HCC-2998 colon, query CC(=O)OC[C@]1(C(=O)C(O)c2ccoc2)[C@H](C)CC[C@@]23COC(=O)C2=CCC[C@@H]31 (stereo partly specified) . Return the value.
> 10 µM

What TGI appears in the records for this molecule with HCC-2998 colon? `COc1c(CCC[P+](c2ccccc2)(c2ccccc2)c2ccccc2)cc2c(c1OC)OCO2`
14.6 µM

Notebook entry, HCC-2998 colon assay: TGI of `COc1cc(/C=C2\C(=O)N(C(=O)Cc3ccccc3)N=C2C)ccc1O` = ?
> 100 µM

Any idea what TGI came out for `N#Cc1c(-c2ccccc2)/c(=C\Nc2ccc(Cl)cc2)c(=O)n2c1nc1ccccc12` on HCC-2998 colon?
> 100 µM

GET /values?readout=TGI&system=HCC-2998 colon&item= CCCCOC(C)(C)/C=C/C(O)[C@](C)(O)[C@H]1[C@H](O)C[C@@]2(C)[C@@H]3CCc4c(cc(OC5OC(CO)C(O)C(O)C5O)c(O)c4C)C3(C)C(=O)C[C@]12C (stereo partly specified)
> 100 µM

What is its TGI for HCC-2998 colon? Entry: `Cc1[c-]onc1C.Cc1[c-]onc1C.[Ag].[Ag].[NH-]S(=O)(=O)c1ccc(N=Nc2cc(N=Nc3ccc(S([NH-])(=O)=O)cc3)c3c(NC(=O)C(Cl)Cl)cccc3c2OC(=O)C(Cl)Cl)cc1`
26 µM

For the record `CN(C)c1nc(=NCc2ccncc2)ss1` , what value of TGI is listed for HCC-2998 colon?
> 100 µM

So what TGI did `O=C(Nc1cccc2cnccc12)c1cc2c(cc1Cl)Sc1nccn1S2(=O)=O` get with HCC-2998 colon?
29.9 µM

Query the reported TGI for HCC-2998 colon; item: `COc1cc2c(cc1OCCCCOc1cc(-c3ccc(F)cc3)nc(C)n1)N=C[C@@H]1CCCN1C2=O`
0.689 µM

Enter reported TGI observed with HCC-2998 colon for `O=C(O)c1ccc([Se][Se]c2ccc(C(=O)O)cc2)cc1`
> 100 µM

Record lookup: for HCC-2998 colon, what TGI belongs to `COC(=O)c1csnn1` ?
> 100 µM

API: value(readout=TGI, system=HCC-2998 colon) for record CCOC1CC(=O)c2c(Br)sc(Br)c21 (stereo unspecified)
36.9 µM

Which TGI is reported with HCC-2998 colon for this entry: `CCN(Cc1ccc(F)c(F)c1)c1ccc(CO)c(Cl)c1` ?
21.6 µM

# query: TGI | item COc1cc(C2c3cc4c(cc3OC(NN=C(C)C)C2C)OCO4)cc(OC)c1O (stereo unspecified) | system: HCC-2998 colon
31.6 µM

Param readout = TGI; param system = HCC-2998 colon; param query = `O=C1CCC(=Nc2ccc(Cl)cc2)N1C(=O)COc1ccc(OCC(=O)N2C(=O)CSC2=Nc2ccc(Cl)cc2)cc1` ; response: value
> 100 µM

Missing value: TGI, HCC-2998 colon, entry `O=C(CN1CCCCC1)CC(O)(C(F)(F)F)C(F)(F)F` . Fill in?
> 100 µM

Hello, I am looking for reported TGI with HCC-2998 colon for `CCCCN1CCN(c2ccc3nc(-c4ccc5nc(-c6ccc(C(F)(F)F)cc6)[nH]c5c4)[nH]c3c2)CC1` . Could you help?
3.55 µM

* * *

Test system: HOP-92 NSCLC
procedure.details: NCI tumour cell line growth inhibition, 48 h
Can you tell me TGI for the items I'm about to list?

Name the reported TGI value associated with the compound `COc1cccc(-c2cc(=O)c3c(C)cc(C)nc3[nH]2)c1`
> 85 µM

Return reported TGI; argument: `COCCN1C2=CCCCC2=Nc2c1nc(N)[nH]c2=O`
> 100 µM

Item `N#Cc1nc(-c2cc([N+](=O)[O-])cc([N+](=O)[O-])c2)oc1N` has what recorded TGI?
> 10 µM

// TGI lookup, key: `COc1ccccc1NC(=O)C1=C(C)NC(C)=C(C(=O)Nc2ccccc2OC)C1c1ccccc1F`
> 100 µM

// TGI lookup, key: COc1cc(C2c3cc4c(cc3OC(NN=C(C)C)C2C)OCO4)cc(OC)c1O (stereo not given)
> 100 µM

Cited source for all entries: PubChem BioAssay (NCI)
